Answer each item with its documented melting point.
Counter-ions that a name gives are not always drawn.

Worked cases, answers included:
>  <Molecule>
COc1cc2nc(-c3ccccc3)nc(N3CCN(C(=O)Nc4ccc([N+](=O)[O-])cc4)CC3)c2cc1OC

>  <Result>
156 to 157 °C

$$$$
>  <Molecule>
CCCCc1ccc(NC(=S)N2CCN(c3ncnc4cc(OC)c(OC)cc34)CC2)cc1

>  <Result>
171 to 173 °C

$$$$
>  <Molecule>
COc1cc(OC)c2ncnc(N3CCN(C(=S)NCc4cccnc4)CC3)c2c1 (as salt: hydrochloride)

>  <Result>
164 to 167 °C

$$$$

Batch: melting point for all items listed.
1. COc1cc2ncnc(N3CCN(C(=S)Nc4ccc(C(C)C)cc4)CC3)c2cc1OC
2. S=C(NCc1ccccc1)N1CCN(c2ncnc3cc4c(cc23)OCCO4)CC1

1. 194 to 195 °C
2. 103 to 105 °C

====

Measured parameter: melting point

Worked cases, answers included:
>  <Compound>
COc1cc2nncc(N3CCN(C(=S)NCc4cccnc4)CC3)c2cc1OC [Compound 427]

>  <Result>
181 to 190 °C

$$$$
>  <Compound>
COc1cc2ncnc(N3CCN(C(=O)NCc4ccc(C(C)C)cc4)CC3)c2cc1OC [Compound 153]

>  <Result>
135 to 136 °C

$$$$
>  <Compound>
COc1cc2ncnc(N3CCN(C(=O)NCc4ccc(Cl)cc4)CC3)c2cc1OC [Compound 178]

>  <Result>
203 to 204 °C

$$$$

Batch: melting point for all items listed.
1. COc1cc2c(N3CCN(C(=O)Nc4ccc(Oc5ccccc5)cc4)CC3)ncnc2cc1C [Compound 333]
2. COc1cc2ncnc(N3CCN(C(=S)NCc4ccc(Cl)cc4)CC3)c2cc1OC [Compound 42]
3. CCC[C@H]1CC[C@H](c2ccc(NC(=S)N3CCN(c4ncnc5cc(OC)c(OC)cc45)CC3)cc2)CC1 [Compound 169]
4. COc1cc2ncnc(N3CCN(C(=O)Nc4ccc([N+](=O)[O-])cc4Cl)CC3)c2cc1OC [Compound 82]
5. COc1cc2ncnc(N3CCN(C(=O)Nc4cc(C)c(C)cc4[N+](=O)[O-])CC3)c2cc1OC [Compound 237]

1: 188 to 189 °C; 2: 218 to 220 °C; 3: 106 to 109 °C; 4: 194 to 195 °C; 5: 213 to 215 °C

====

Measured parameter: melting point

Worked cases, answers included:
>  <Compound>
Fc1ccc2ncnc(N3CCN(C(=S)NCc4cccnc4)CC3)c2c1 [Compound 299]

>  <Measured parameter>
melting point

>  <Result>
170 to 172 °C

$$$$
>  <Compound>
COc1cc2ncnc(N3CCN(C(=O)Nc4ccc(C)nc4)CC3)c2cc1OC [Compound 271]

>  <Measured parameter>
melting point

>  <Result>
240 to 241 °C

$$$$
>  <Compound>
O=[N+]([O-])c1cc2c(N3CCN(C(=S)NCc4ccccc4)CC3)ncnc2cc1Cl [Compound 358]

>  <Measured parameter>
melting point

>  <Result>
93 to 95 °C

$$$$
>  <Compound>
COc1cc2ncnc(N3CCN(C(=O)NCc4cccs4)CC3)c2cc1OC [Compound 259]

>  <Measured parameter>
melting point

>  <Result>
168 to 170 °C

$$$$
>  <Compound>
O=C(Nc1ccc([N+](=O)[O-])cc1)N1CCN(c2nc(-c3ccccc3)nc3ccccc23)CC1 [Compound 110]

>  <Measured parameter>
melting point

>  <Result>
236 to 238 °C

$$$$

Batch: melting point for all items listed.
1. COc1cc2ncnc(N3CCN(C(=S)NCc4ccc(Br)cc4)CC3)c2cc1OC [Compound 185]
2. COc1cc2ncnc(N3CCN(C(=O)Nc4ccc(N=Nc5ccccc5)cc4)CC3)c2cc1OC [Compound 229]
3. COc1cc2ncnc(N3CCN(C(=O)Nc4ccc(OC(F)F)cc4)CC3)c2cc1OC [Compound 158]

["217 to 218 °C", "244 to 246 °C", "190 to 192 °C"]
